- Test system: MDA-N
- ASSAY: NCI tumour cell line growth inhibition, 48 h
Active and inactive are the calls of the source. Cut-off read from the data, not from the text of the source: active = GI50 up to about 1.1 µM and inactive = higher. Where a SMILES comes first, the peptide text is derived from it. The star is where a group is joined. Boc = CC(C)(C)OC(=O)*; OBn = c1ccc(CO*)cc1
Listing: GI50 of selected compounds

Examples with their reported GI50 follow.
Using known records, supply GI50 for Cc1cc([N+](=O)[O-])ccc1/N=N/C(=O)NNc1ccc([N+](=O)[O-])cc1C
15.7 µM (inactive)

For CC(NC(=O)C(Cc1ccccc1)NC(=O)C(Cc1ccccc1)NC(=O)OC(C)(C)C)C(=O)OCc1ccccc1 (stereo not drawn) (Boc-Phe-Phe-Ala-OBn; configuration not given here) , write its GI50.
> 100 µM (inactive)

Provide measured GI50 value, entry: COc1ccc(/C(=N/N=c2\[nH]c3ccccc3n2Cc2ccccc2)C(=O)O)cc1
32 µM (inactive)

New cases:
Assign GI50 to the following record: O=P(O)(O)OC1O[C@H](CO)[C@H](O)[C@H](O)[C@H]1O (some centres undefined)
> 100 µM (inactive)

---

- Tested on: MDA-MB-231
- ASSAY: NCI tumour cell line growth inhibition, 48 h
The source made the active and inactive calls. No stated cut-off is given here; in the data, active = GI50 up to about 1.1 µM and inactive = higher. Where a SMILES comes first, the peptide text is derived from it. The star is where a group is joined. Boc = CC(C)(C)OC(=O)*; OBn = c1ccc(CO*)cc1
Log the outcome using a class from active, inactive

Below are worked cases with known answers.
// return assay outcome for Cc1ccc2ccccc2c1CC1S(=O)(=O)OCCOS1(=O)=O
inactive

For O=CN1CCN(C(=O)c2cc(Cl)cc(Cl)c2)C1=S , which call appears in the assay record?
inactive

Kindly provide the recorded test outcome for the following compound: COc1ccc(OC)c(-c2cc(=O)c3c(OC)c(OC)c(OC)c(OC)c3o2)c1
inactive

Short answer needed: outcome of this test for C=CC1=C(C)c2cc3[nH]c(c4c5nc(cc6[nH]c(cc1n2)c(C)c6CC)C(C)=C5C(=O)[C@@H]4C(=O)OC)[C@@H](CCC(=O)O)[C@@H]3C ?
inactive

Hello, I am checking results. What call was entered for CN(C)C1(N(C)C)Oc2c(c(=O)n(C)c(=O)n2C)C(c2ccccc2Br)C1(F)F (configuration not stated) ?
inactive

Per the assay record, what outcome was assigned to COc1ccc(NC(=S)N/N=C(\c2ccccc2)c2ccccn2)cc1 ?
active

Per the assay record, what outcome was assigned to O=c1[nH]nc(Cc2ccccc2)n1/N=C/c1c[nH]c2ccccc12 ?
inactive

Given O=C(NCCCCCN1CCC2(CCCCC2)CC1)C(C1CCCCC1)C1CCCCC1 , state the outcome it received in this test.
inactive

Would you mind telling me which call this test gave CC(C)=CC1C(COC(=O)c2ccccc2Cl)C1(C)C (configuration not stated) ?
inactive

Could you kindly confirm the outcome this assay logged for COc1ccc(C2(O)c3ccccc3C(=O)N(C)C2(O)c2ccc(OC)cc2)cc1 (configuration not stated) ?
inactive

---
Outcome logged for C[C@@H]1CC[C@@H]2[C@@H](C1)O[C@@H]([C@H](C)OCc1ccccc1)SC2(C)C in this assay:
inactive

Dear all, I need the recorded test outcome for Cc1ccc2c(c1C)CC1(Cc3ccc(C)c(C)c3C1=O)C2=O (configuration not stated) , thank you.
inactive

Returns: the outcome recorded for Cn1c(=O)c2c(nc3n(CC(O)CCl)c(=O)ccn23)n(C)c1=O (configuration not stated) in this assay.
inactive

Answer briefly: the call reported for CN(C(=O)[C@H](NC(=O)OCc1ccccc1)c1ccccc1)C1CCCCC1N1CCCC1 (some centres not stated) in this assay.
inactive

Kindly provide the recorded test outcome for the following compound: Sc1ccc2ccccc2c1CNCc1ccccc1
inactive

// return assay outcome for CC(NC(=O)C(Cc1ccccc1)NC(=O)C(Cc1ccccc1)NC(=O)OC(C)(C)C)C(=O)OCc1ccccc1 (stereo not drawn) (Boc-Phe-Phe-Ala-OBn; configuration not given here)
inactive

Dear all, I need the recorded test outcome for C=C1C(=O)O[C@H]2[C@@H](O)[C@H](C)CCC/C(C)=C/CC[C@@]3(C)O[C@@H]3C[C@@H]12 , thank you.
inactive

Short answer needed: outcome of this test for O=S(=O)(O)c1cc(/N=N/c2cc(S(=O)(=O)O)c3cccnc3c2O)ccc1/C=C/c1ccc(/N=N/c2cc(S(=O)(=O)O)c3cccnc3c2O)cc1S(=O)(=O)O ?
inactive

Name the outcome recorded for O=C(Nc1ccccc1)OCCN=c1c2ccccc2ccc2ccccc12 in the assay.
inactive

Which outcome did this test record for the compound O=C1C[C@H](c2ccccc2)C2(C(=O)c3ccccc3C2=O)[C@H](c2ccccc2)C1 ?
inactive

---

- System: CCRF-CEM
- ASSAY: NCI tumour cell line growth inhibition, 48 h
Active and inactive are the calls of the source. Cut-off read from the data, not from the text of the source: active = GI50 up to about 1.1 µM and inactive = higher.
Would you mind answering with one of these outcomes? yes for active, no for inactive

Identify the outcome logged in this assay for the compound shown: O=c1[nH]nc(Cc2ccccc2)n1/N=C/c1c[nH]c2ccccc12
no

What did this assay record as the result for S=C(N/N=C(/c1ccccc1)c1ccccn1)Nc1ccc(Cl)cc1 ?
yes

# fetch the recorded call for CN(C)CN(C)c1nc(N(C)C)nc(N(C)CN(C)C)n1 here
no

Identify the outcome logged in this assay for the compound shown: CN(C)C1(N(C)C)Oc2c(c(=O)n(C)c(=O)n2C)C(c2ccccc2Br)C1(F)F (stereo unspecified)
no

Which outcome did this test record for the compound O=[N+]([O-])/C(C(Cl)=C(Cl)Cl)=C1\Nc2ccccc2O1 ?
no

Field: outcome | Entry: NCCNCc1c2ccccc2c(CNCCN)c2ccccc12
no

---

- System: OVCAR-4
- ASSAY: NCI tumour cell line growth inhibition, 48 h
Activity calls are given as the source filed them. Cut-off read from the data, not from the text of the source: active = GI50 up to about 1.1 µM and inactive = higher.
ATTRIBUTE MEASURED: GI50

For the compound Cc1c(C)c(S(=O)(=O)N(CCCCCON)OCCCN)c(C)c2c1OC(C)(C)CC2 , give its reported GI50.
7.5 µM (inactive)

---

- Test system: HCC 2998
- ASSAY: NCI tumour cell line growth inhibition, 48 h
Active and inactive are the calls of the source. No stated cut-off is given here; in the data, active = GI50 up to about 1.1 µM and inactive = higher.
The reply should name one outcome from 1 = active, 0 = inactive

Sample answers from the record:
// param item: C=C(c1ccccc1)c1ccccc1-c1cc(-c2ccccc2)cc(-c2ccccc2)n1 ; yields the recorded call
0

For this compound, state the assay outcome: CC(=O)O[C@H]1C(=O)[C@@]2(C)[C@H]([C@H](OC(=O)c3ccccc3)[C@]3(O)C[C@H](OC(=O)[C@H](O)[C@@H](NC(=O)c4ccccc4)c4cccc(N(C)C)c4)C(C)=C1C3(C)C)[C@]1(OC(C)=O)CO[C@@H]1C[C@@H]2O
1

Continuing:
Hi, sorry to bother you, what did the test record for Cc1ccc(NC(=O)C(=O)C(C#N)c2nc(-c3ccc(-c4ccccc4)cc3)cs2)c(C)c1 (centres undefined) ?
0

Returns: the outcome recorded for CCOC(=O)/C(C#N)=C/c1[nH]c(C)c(C)c1C in this assay.
0

Outcome? COC/C=C\COC
0

# outcome recorded in this test, key = NNC(=O)N/N=C1\CN(c2ccc(Cl)cc2Cl)C(=O)C(=O)C1c1nc2ccccc2o1 (centres undefined)
0

Per the assay record, what outcome was assigned to Nc1ccc(N)c2c1C(=O)c1c(N)ccc(N)c1C2=O ?
0

Call for entry COC(=O)c1c(C)cccc1C1CN=NC12Cc1cc(C)c(C)cc1C2=O (centres undefined) :
0

// return assay outcome for c1ccc2c(c1)C1CCCCCC21N1CCOCC1 (centres undefined)
0

---

- System: EKVX
- ASSAY: NCI tumour cell line growth inhibition, 48 h
Calls of active or inactive are those of the source. No stated cut-off is given here; in the data, active = GI50 up to about 1.1 µM and inactive = higher.
Bench note: report the call from true for active, false for inactive

Example cases with answers are listed next.
Please indicate how the test categorized CC(C)(C)c1cc(COc2c3sc(=S)sc3c(OCc3cc(C(C)(C)C)cc(C(C)(C)C)c3)c3sc(=S)sc23)cc(C(C)(C)C)c1 .
false

Could you please tell me the result logged for O=S(=O)(C1=CC(S(=O)(=O)c2ccccc2)COC1)c1ccccc1 (centres undefined) in this assay?
false

Others:
Could you kindly confirm the outcome this assay logged for C[C@]12CCC3[C@@H](C[C@H]4OC(=O)[C@@]35CCC(=O)C=C45)C1CCC2=O (some centres undefined) ?
false

Which outcome did this test record for the molecule NCCNCc1c2ccccc2c(CNCCN)c2ccccc12 ?
false

Please share the test call associated with COc1ccc2c3c(c(C(=O)O)oc13)C(CCC(=O)O)CC2 (centres undefined) .
false

Short answer needed: outcome of this test for CCCCCCc1cc(C(=O)Nc2cccc(C(F)(F)F)c2)nc(N)n1 ?
false

Given OCC1OC(n2cnc3c(/C=C(/O)c4ccccc4)ncnc32)C(O)C1O (centres undefined) , state the outcome it received in this test.
false

Call for entry CN(C)/C=N/S(=O)(=O)c1nn2c(C=O)c(-c3ccc(-c4ccc([N+](=O)[O-])cc4)o3)nc2s1 :
false

Please state the recorded outcome for this molecule: O=C(c1ccccc1)N1C2CCC1C(C(F)(F)F)=C2C(F)(F)F
false

Tell me the assay call for O=C(NCCc1ccccc1)c1cc(/C=C/c2cc(O)ccc2O)ccc1O please.
false
